Reference for the values: paper PMC10397247

assay system: T1, 4H3907-bH
T1 chain: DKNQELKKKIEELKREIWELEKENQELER
protocol summary: two-hybrid library CCNG1;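 note: natural log of median RNA to DNA barcode read ratio; higher means stronger binding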
# if value of interaction score reaches 0.5, tag Yes; if it stays below, tag No

Previously resolved entries follow.
DKNQELKKEIEELEREIWELEKKNQELKR [4H3592-bH]
Yes
DKNQELKKEIEELERENWELEKEIQELER [4H3601-bH]
No

Kindly determine if interaction score recorded for DKIQELKKENEELERKNWELKKEIQELER [4H2745-bH] is above or exactly 0.5.
No

Let us now turn to DENQELEKKIEELKRKNWELKKKIQELKR [4H1406-bH]
Yes

Then this binder: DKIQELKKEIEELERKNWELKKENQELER [4H2619-bH]
Yes

What about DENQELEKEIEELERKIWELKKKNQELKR [4H1072-bH] ?
Yes

Entry to check: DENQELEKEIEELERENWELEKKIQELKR [4H1046-bH]
No
